Where do the numbers come from? From ChEMBL document CHEMBL4837253.

- PROTOCOL: Oral bioavailability in Wister Han rat at 10 mg/kg
- Type: ADME, organism-based
- ASSAY_SETUP: in vivo
PROPERTY_NAME: bioavailability (%)
Numbers only here, please. The scale is %.

Reference set (3 entries):
# MOL_SMILES, bioavailability / %
data = [
    ("NC[C@@H]1C[C@@H](CCCB(O)O)[C@@H](C(=O)O)N1", 51),
    ("O=C(O)[C@H]1NCCO[C@H]1CCCB(O)O", 10),
    ("O=C(O)[C@H]1NC[C@H](O)[C@H]1CCCB(O)O", 12),
]

Query: Entry `O=C(O)[C@@]1(CCN2CCCCC2)NCC[C@H]1CCCB(O)O` : reported bioavailability = ?
Result: 2.7

Query: And the next one, `C[C@@]1(CCCB(O)O)CCN[C@@H]1C(=O)O` ?
Result: 9

Query: And the next one, `O=C(O)[C@H]1N[C@H](CO)C[C@H]1CCCB(O)O` ?
Result: 12

Query: And the next one, `O=C(O)[C@H]1NCC[C@H]1CCCB(O)O` ?
Result: 25

Query: And the next one, `O=C(O)[C@H]1NCC[C@@H]1CCCB(O)O` ?
Result: 34

Query: And the next one, `O=C(O)[C@H]1NCC[C@@]1(CO)CCCB(O)O` ?
Result: 39

----------
# IC50 annotations
- SYSTEM_NAME: Arginase-1 (Homo sapiens, UniProt P05089)
- Sequence (P05089 whole entry): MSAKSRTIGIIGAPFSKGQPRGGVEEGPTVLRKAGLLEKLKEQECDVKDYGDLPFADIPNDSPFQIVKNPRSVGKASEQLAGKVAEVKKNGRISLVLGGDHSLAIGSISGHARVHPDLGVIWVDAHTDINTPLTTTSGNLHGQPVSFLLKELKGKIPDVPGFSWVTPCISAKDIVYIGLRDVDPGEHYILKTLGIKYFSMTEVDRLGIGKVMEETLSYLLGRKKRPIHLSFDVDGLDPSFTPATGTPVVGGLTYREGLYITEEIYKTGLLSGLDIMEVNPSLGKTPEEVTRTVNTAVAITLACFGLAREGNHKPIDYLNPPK
- PROTOCOL: Inhibition of human recombinant ARG1 expressed in Escherichia coli using thioarginine as a substrate preincubated for 30 mins followed by substrate addition and incubated for 60 mins by fluorescence based arginine thio ornithine generating assay
Numbers only here, please. The scale is nM.

Reference set (2 entries):
# MOL_SMILES, PROPERTY_NAME, UNIT_STRING, OBSERVED_RESULT
measured = [
    ("C[C@H](N)C(=O)N[C@H]1CN[C@H](C(=O)O)[C@@H]1CCCB(O)O", "IC50", "nM", 11),
    ("O=C(O)[C@@]1(CCN2CCCCC2)NCC[C@H]1CCCB(O)O", "IC50", "nM", 70),
]

Query: Form: Entry = `CC(C)[C@@H](N)C(=O)N[C@H]1CN[C@H](C(=O)O)[C@@H]1CCCB(O)O` | System = Arginase-1 (Homo sapiens, UniProt P05089) | IC50 = ____
Result: 34

Query: And the next one, `C[C@@H]1C[C@@H](CCCB(O)O)[C@@H](C(=O)O)N1` ?
Result: 7

----------
# IC50 annotations
- SYSTEM_NAME: Arginase-1 (Homo sapiens, UniProt P05089)
- PROTOCOL: Inhibition of human recombinant ARG1 expressed in Escherichia coli using thioarginine as a substrate preincubated for 30 mins followed by substrate addition and incubated for 60 mins by fluorescence based arginine thio ornithine generating assay
Numbers only here, please. The scale is nM.

Query: Entry `CN[C@H](C(=O)N[C@H]1CN[C@H](C(=O)O)[C@@H]1CCCB(O)O)C(C)C` : reported IC50 = ?
Result: 5

Query: And the next one, `O=C(O)[C@H]1NCC[C@@]1(CO)CCCB(O)O` ?
Result: 19

Query: And the next one, `CC(C)[C@H](N)C(=O)N[C@H]1CN[C@H](C(=O)O)[C@@H]1CCCB(O)O` ?
Result: 2

Query: And the next one, `CN(C)[C@H]1CN[C@H](C(=O)O)[C@@H]1CCCB(O)O` ?
Result: 66

Query: And the next one, `C[C@@]1(CCCB(O)O)CCN[C@@H]1C(=O)O` ?
Result: 33

Query: And the next one, O=C(O)C1CC(CCB(O)O)CN1 (racemic) ?
Result: 8730

----------
# bioavailability annotations
- PROTOCOL: Oral bioavailability in C57BL/6 mouse at 10 mg/kg
- Format: ADME, organism-based
- ASSAY_SETUP: in vivo
Numbers only here, please. The scale is %.

Reference set (6 entries):
# MOL_SMILES, bioavailability (%)
rows = [
    ("C[C@@H]1C[C@@H](CCCB(O)O)[C@@H](C(=O)O)N1", 31),
    ("O=C(O)[C@H]1NCC[C@@H]1CCCB(O)O", 44),
    ("O=C(O)[C@H]1NC[C@H](O)[C@H]1CCCB(O)O", 41),
    ("CN(C)[C@H]1CN[C@H](C(=O)O)[C@@H]1CCCB(O)O", 17),
    ("C[C@H](N)C(=O)N[C@H]1CN[C@H](C(=O)O)[C@@H]1CCCB(O)O", 3),
    ("C[C@@]1(CCCB(O)O)CCN[C@@H]1C(=O)O", 19),
]

Query: Entry `CN[C@H]1CN[C@H](C(=O)O)[C@@H]1CCCB(O)O` : reported bioavailability = ?
Result: 11

Query: And the next one, `O=C(O)[C@H]1NC[C@@H]1CCCB(O)O` ?
Result: 50

Query: And the next one, `O=C(O)[C@H]1NCC[C@@]1(CO)CCCB(O)O` ?
Result: 34

Query: And the next one, `N[C@H]1CN[C@H](C(=O)O)[C@@H]1CCCB(O)O` ?
Result: 14

Query: And the next one, `O=C(O)[C@H]1NCCO[C@H]1CCCB(O)O` ?
Result: 14

Query: And the next one, `O=C(O)[C@H]1NC[C@H](NCC(F)(F)F)[C@H]1CCCB(O)O` ?
Result: 10

Query: And the next one, `CC(C)[C@H](N)C(=O)N[C@H]1CN[C@H](C(=O)O)[C@@H]1CCCB(O)O` ?
Result: 13

Query: And the next one, `CC(C)(C)[C@H](N)C(=O)N[C@H]1CN[C@H](C(=O)O)[C@@H]1CCCB(O)O` ?
Result: 34

Query: And the next one, `O=C(O)[C@H]1N[C@H](CO)C[C@H]1CCCB(O)O` ?
Result: 12

Query: And the next one, `O=C(O)[C@H]1NCC[C@H]1CCCB(O)O` ?
Result: 43

Query: And the next one, `NC[C@@H]1C[C@@H](CCCB(O)O)[C@@H](C(=O)O)N1` ?
Result: 44

Query: And the next one, `O=C(O)[C@H]1NC[C@H]1CCCB(O)O` ?
Result: 42

Query: And the next one, `CN[C@H](C(=O)N[C@H]1CN[C@H](C(=O)O)[C@@H]1CCCB(O)O)C(C)C` ?
Result: 4.6

Query: And the next one, `O=C(O)[C@@]1(CCN2CCCCC2)NCC[C@H]1CCCB(O)O` ?
Result: 8.5

----------
- SYSTEM_NAME: Arginase-1 (Homo sapiens, UniProt P05089)
- PROTOCOL: Inhibition of human recombinant ARG1 expressed in Escherichia coli using thioarginine as a substrate preincubated for 30 mins followed by substrate addition and incubated for 60 mins by fluorescence based arginine thio ornithine generating assay
Could you mark each record met if its IC50 falls strictly under 5 nM, and not met if it equals or exceeds it?

As a guide, the following entries are already answered.
# MOL_SMILES, ASSIGNED_LABEL
measured = [
    ("O=C(O)[C@H]1NCC[C@H]1CCCB(O)O", "not met"),
    ("O=C(O)[C@H]1N[C@H](CO)C[C@H]1CCCB(O)O", "not met"),
]

Query: Here's an entry: `O=C(O)[C@H]1NC[C@H](O)[C@H]1CCCB(O)O` . Is its IC50 below 5 nM?
Result: met

Query: And the next one, `N[C@H]1CN[C@H](C(=O)O)[C@@H]1CCCB(O)O` ?
Result: met

Query: And the next one, `NC[C@@H]1C[C@@H](CCCB(O)O)[C@@H](C(=O)O)N1` ?
Result: not met

----------
# EC50 annotations
- SYSTEM_NAME: Arginase-1 (Homo sapiens)
- PROTOCOL: Inhibition of human ARG1 in HEK293 cells by cell based assay
Numbers only here, please. The scale is µM.

Reference set (2 entries):
# MOL_SMILES, EC50 / µM
rows = [
    ("C[C@@]1(CCCB(O)O)CCN[C@@H]1C(=O)O", 6.3),
    ("CO[C@H]1CN[C@H](C(=O)O)[C@@H]1CCCB(O)O", 28),
]

Kindly consider the entry below.
Query: Entry `NC[C@@]1(CCCB(O)O)CCN[C@@H]1C(=O)O` : reported EC50 = ?
Result: 14
